target_of_assay: T315I Bcr-abl (Homo sapiens, UniProt P00519, T315I)
Construct: BCR (N-terminal fusion partner); the other entry of the earlier key: BCR (P11274, Breakpoint cluster region protein)
experiment_notes: Proliferation of Ba/F3 cells expressing T315I mutant Bcr-abl
Description: 32D-p210 cells are plated into 96 well TC plates at a density of 15,000 cells per well. 50 μL of two fold serial dilutions of the test compound (Cmax is 40 μM) are added to each well (STI571 is included as a positive control). After incubating the cells for 48 hours at 37° C., 5% CO2, 15 μL of MTT (Promega) is added to each well and the cells are incubated for an additional 5 hours. […]
measure: pIC50
The value called pIC50 is obtained by taking minus log10 of the concentration in mol/L.

Lookup: pIC50 / T315I Bcr-abl (Homo sapiens, UniProt P00519, T315I) / COc1ccc(Nc2cc3c(cn2)cc(-c2cc(NC(=O)c4cccc(C(F)(F)F)c4)ccc2C)c(=O)n3C)cn1 [Example 8]
6.91

====

target_of_assay: wild type Bcr-abl (Homo sapiens)
Construct: BCR (N-terminal fusion partner); the other entry of the earlier key: BCR (P11274, Breakpoint cluster region protein)
experiment_notes: Proliferation of Ba/F3 cells expressing wild type Bcr-abl
measure: IC50

Find the recorded IC50 belonging to `COc1ccc(Nc2cc3c(cn2)cc(-c2cc(NC(=O)c4cccc(C(F)(F)F)c4)ccc2C)c(=O)n3C)cn1` and report it.
< 0.5 nM

====

target_of_assay: M351T Bcr-abl (Homo sapiens, UniProt P00519, M351T)
Construct: BCR (N-terminal fusion partner); the other entry of the earlier key: BCR (P11274, Breakpoint cluster region protein)
experiment_notes: Proliferation of Ba/F3 cells expressing M351T mutant Bcr-abl
measure: pIC50
The value called pIC50 is obtained by taking minus log10 of the concentration in mol/L.

Find the recorded pIC50 belonging to COc1ccc(Nc2cc3c(cn2)cc(-c2cc(NC(=O)c4cccc(C(F)(F)F)c4)ccc2C)c(=O)n3C)cn1 [Example 8] and report it.
8.05

====

target_of_assay: F317L Bcr-abl (Homo sapiens, UniProt P00519, F317L)
Construct: BCR (N-terminal fusion partner); the other entry of the earlier key: BCR (P11274, Breakpoint cluster region protein)
Sequence (P00519 229-512 F317L limits assumed): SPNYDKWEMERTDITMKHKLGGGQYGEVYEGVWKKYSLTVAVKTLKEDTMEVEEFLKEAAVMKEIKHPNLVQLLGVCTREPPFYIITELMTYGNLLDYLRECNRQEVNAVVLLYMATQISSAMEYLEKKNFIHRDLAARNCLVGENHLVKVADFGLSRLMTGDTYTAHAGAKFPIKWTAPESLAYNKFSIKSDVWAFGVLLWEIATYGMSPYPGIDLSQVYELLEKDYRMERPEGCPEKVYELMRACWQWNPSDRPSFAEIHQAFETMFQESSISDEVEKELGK
experiment_notes: Proliferation of Ba/F3 cells expressing F317L mutant Bcr-abl
pIC50: −log10 of the molar value.
measure: pIC50

Find the recorded pIC50 belonging to COc1ccc(Nc2cc3c(cn2)cc(-c2cc(NC(=O)c4cccc(C(F)(F)F)c4)ccc2C)c(=O)n3C)cn1 [Example 8] and report it.
> 9.30

====

target_of_assay: b-Raf (Homo sapiens, UniProt P15056)
Sequence (P15056 whole entry): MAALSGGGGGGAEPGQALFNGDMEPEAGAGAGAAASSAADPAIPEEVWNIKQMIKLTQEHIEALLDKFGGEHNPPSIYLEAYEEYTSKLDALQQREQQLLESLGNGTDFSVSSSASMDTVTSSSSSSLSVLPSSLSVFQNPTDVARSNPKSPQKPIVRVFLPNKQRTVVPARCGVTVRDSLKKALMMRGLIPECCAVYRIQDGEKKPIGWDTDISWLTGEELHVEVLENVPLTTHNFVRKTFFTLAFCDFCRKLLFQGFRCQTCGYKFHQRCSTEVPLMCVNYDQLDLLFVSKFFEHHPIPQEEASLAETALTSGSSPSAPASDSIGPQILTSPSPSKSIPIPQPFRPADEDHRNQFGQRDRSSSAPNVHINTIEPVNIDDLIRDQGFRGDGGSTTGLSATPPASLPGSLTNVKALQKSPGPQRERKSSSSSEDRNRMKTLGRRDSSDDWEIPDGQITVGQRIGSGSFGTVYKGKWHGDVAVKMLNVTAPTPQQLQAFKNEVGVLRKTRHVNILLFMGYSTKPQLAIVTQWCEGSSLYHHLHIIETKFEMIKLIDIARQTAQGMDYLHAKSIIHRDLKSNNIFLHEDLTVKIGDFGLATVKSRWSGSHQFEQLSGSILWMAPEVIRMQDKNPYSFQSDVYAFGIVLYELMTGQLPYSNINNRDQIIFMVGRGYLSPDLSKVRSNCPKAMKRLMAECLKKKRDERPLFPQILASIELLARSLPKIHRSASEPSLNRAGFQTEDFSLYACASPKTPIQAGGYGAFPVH
measure: pIC50
The value called pIC50 is obtained by taking minus log10 of the concentration in mol/L.

Find the recorded pIC50 belonging to `COc1ccc(Nc2cc3c(cn2)cc(-c2cc(NC(=O)c4cccc(C(F)(F)F)c4)ccc2C)c(=O)n3C)cn1` and report it.
6.30
